Target: HLA-B*07:02 class I complex (biotinylated heavy chain with beta2-microglobulin) (human)
Assay: UV peptide exchange + HLA class I ELISA; % of Pos control peptide
Details: remark: other sources report otherwise
Measured property: exchange rate with Pos peptide (%)

Qu. Entry under review: IPVLTRWPL (here or on the partner: biotinylated heavy chain) [P19 9-mer neoantigen peptide … (TMEM222-LOC644961 fusion)] . Reported exchange rate with Pos peptide?
Ans. 91.3

a. RAVRRMNTF (here or on the partner: biotinylated heavy chain) [P17 9-mer neoantigen peptide … (MSMB-NOCA4 fusion)]
b. RVGNCKHLK (here or on the partner: biotinylated heavy chain) [P82 9-mer neoantigen peptide … (AR-V7 splice variant)]
Qu. Param pair: a , b . Output: the one whose exchange rate with Pos peptide is numerically greater. Write the label of whichever entry you select.
Ans. a

Reference source for all entries: patent US20240139265A1
